# Tested on: P. aeruginosa PΔ3 cells;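 also: slope of accumulation versus external concentration fitted as a line through zero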
# CONDITION SET: 1 min incubation, 10-80 µM
Counter-ions that a name gives are not always drawn.
RECORDED METRIC: Concentration slopes of accumulation, PΔ3_1 min
// return just the number, without any unit appended

Prompt: Look at this molecule and give its reported Concentration slopes of accumulation, PΔ3_1 min. O=C(c1ccc(OCCN2CCCCC2)cc1)c1c(-c2ccc(O)cc2)sc2cc(O)ccc12 [OU-0000741, Raloxifene HCl]
Response: 69.39

Prompt: Entry under review: CN1CCN(c2cc3c(cc2F)c(=O)c(C(=O)O)cn3-c2ccc(F)cc2)CC1 [OU-0000624, DIFLOXACIN] . Reported Concentration slopes of accumulation, PΔ3_1 min?
Response: 4.42

Prompt: For the molecule COc1cccc2c1C(=O)c1c(O)c3c(c(O)c1C2=O)C[C@@](O)(C(=O)CO)C[C@@H]3O[C@H]1C[C@H](N)[C@H](O)[C@H](C)O1 [OU-0000835, Doxorubicin] , what Concentration slopes of accumulation, PΔ3_1 min is on record?
Response: 1.32

Prompt: Concentration slopes of accumulation, PΔ3_1 min for Cc1cc(C)nc(NS(=O)(=O)c2ccc(N)cc2)n1 [OU-0000689, SULFAMETHAZINE] ?
Response: 1.31

Prompt: Concentration slopes of accumulation, PΔ3_1 min lookup needed for CCCC[C@H]1CNC(=O)[C@H](Cc2cc(F)cc(F)c2)N1 [OU-0032509] , thanks.
Response: 14.12

Prompt: Give its Concentration slopes of accumulation, PΔ3_1 min value. Item: O=C1N[C@@H](Cc2c[nH]c3ccccc23)C(=O)N2CCC[C@@H]12 [OU-0032512]
Response: 2.98

Prompt: # Concentration slopes of accumulation, PΔ3_1 min lookup, item COc1c(N2C[C@@H]3CCCN[C@@H]3C2)c(F)cc2c(=O)c(C(=O)O)cn(C3CC3)c12 [OU-0000626, MOXIFLOXACIN HYDROCHLORIDE]
Response: 1.39

Prompt: # lookup: Concentration slopes of accumulation, PΔ3_1 min of CS(=O)(=O)O.C[C@H]1COc2c(C3(N)CC3)c(F)cc3c(=O)c(C(=O)O)cn1c23 [OU-0000627, PAZUFLOXACIN MESYLATE]
Response: 3.81

Prompt: Quick one: Concentration slopes of accumulation, PΔ3_1 min for CCn1cc(C(=O)O)c(=O)c2cc(F)c(N3CCNCC3)cc21 [OU-0000789, Norfloxacin] ?
Response: 15.28

###

# Tested on: P. aeruginosa PAO1 cells
# TEST METHOD NOTES: LC–MS quantification of intracellular accumulation, PAO1;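 also: slope of accumulation versus external concentration fitted as a line through zero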
# CONDITION SET: 40 min incubation, 10-80 µM
Structures can show the parent of a compound that is named as a salt.
# note: boundary value 20 maps to Not met; Concentration slopes of accumulation, PAO1_40 min below it maps to Met

Prompt: Item CC(Cc1ccc(O)cc1)NCC(O)c1cc(O)cc(O)c1 (centres unmarked) : Concentration slopes of accumulation, PAO1_40 min beneath 20, strictly?
Response: Met

Prompt: Here's an entry: CCN1CCN(c2cc3c(cc2F)c(=O)c(C(=O)O)cn3C2CC2)CC1 . Is its Concentration slopes of accumulation, PAO1_40 min below 20?
Response: Met

Prompt: Item CC(C)(C)OC(=O)N1[C@H](CCC2CCCCC2)CNC(=O)[C@@H]1Cc1cc(F)cc(F)c1 : Concentration slopes of accumulation, PAO1_40 min beneath 20, strictly?
Response: Not met

Prompt: Identify whether the compound O=C(c1ccc(OCCN2CCCCC2)cc1)c1c(-c2ccc(O)cc2)sc2cc(O)ccc12 [OU-0000741, Raloxifene HCl] records Concentration slopes of accumulation, PAO1_40 min below 20.
Response: Not met

Prompt: Threshold test, Concentration slopes of accumulation, PAO1_40 min < 20: CN1CCN(c2cc3c(cc2F)c(=O)c(C(=O)O)cn3-c2ccc(F)cc2)CC1
Response: Met

###

# Tested on: P. aeruginosa PAO1-Pore cells
# TEST METHOD NOTES: LC–MS quantification of intracellular accumulation, PAO1-Pore;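 also: slope of accumulation versus external concentration fitted as a line through zero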
# CONDITION SET: 40 min incubation, 10-80 µM
Threshold check on Concentration slopes of accumulation, PAO1-Pore_40 min: at or above 7 gives Condition met, strictly below gives Condition not met.

Prompt: Does the reported Concentration slopes of accumulation, PAO1-Pore_40 min for COc1c(N2CCNC(C)C2)c(F)cc2c(=O)c(C(=O)O)cn(C3CC3)c12 (stereo not drawn) fall at or above the 7 mark?
Response: Condition not met

Prompt: Reported Concentration slopes of accumulation, PAO1-Pore_40 min at or above 7? O=C1NC[C@@H](CCC2CCCCC2)N[C@H]1Cc1cc(F)cc(F)c1
Response: Condition met

Prompt: Item CCCC[C@H]1CNC(=O)[C@H](Cc2cc(F)cc(F)c2)N1 with Concentration slopes of accumulation, PAO1-Pore_40 min of 7 or above?
Response: Condition met

Prompt: Given the entry CC1CN=C(c2ccc(NC(=O)Nc3ccc(C4=NCCN4)cc3)cc2)N1.Cl (stereo not drawn) , answer whether its Concentration slopes of accumulation, PAO1-Pore_40 min meets or surpasses 7.
Response: Condition met

Prompt: Please indicate if the recorded Concentration slopes of accumulation, PAO1-Pore_40 min for C[C@H]1COc2c(N3CCN(C)CC3)c(F)cc3c(=O)c(C(=O)O)cn1c23 meets or exceeds 7.
Response: Condition met

Prompt: Dear colleague, could you confirm whether COCCCC/C(=N\OCCN)c1ccc(C(F)(F)F)cc1 has Concentration slopes of accumulation, PAO1-Pore_40 min at or above 7?
Response: Condition not met
